Recorded values, source paper PMC3195835.

study.target: P-gp (Homo sapiens, UniProt P08183)
Sequence (P08183 whole entry): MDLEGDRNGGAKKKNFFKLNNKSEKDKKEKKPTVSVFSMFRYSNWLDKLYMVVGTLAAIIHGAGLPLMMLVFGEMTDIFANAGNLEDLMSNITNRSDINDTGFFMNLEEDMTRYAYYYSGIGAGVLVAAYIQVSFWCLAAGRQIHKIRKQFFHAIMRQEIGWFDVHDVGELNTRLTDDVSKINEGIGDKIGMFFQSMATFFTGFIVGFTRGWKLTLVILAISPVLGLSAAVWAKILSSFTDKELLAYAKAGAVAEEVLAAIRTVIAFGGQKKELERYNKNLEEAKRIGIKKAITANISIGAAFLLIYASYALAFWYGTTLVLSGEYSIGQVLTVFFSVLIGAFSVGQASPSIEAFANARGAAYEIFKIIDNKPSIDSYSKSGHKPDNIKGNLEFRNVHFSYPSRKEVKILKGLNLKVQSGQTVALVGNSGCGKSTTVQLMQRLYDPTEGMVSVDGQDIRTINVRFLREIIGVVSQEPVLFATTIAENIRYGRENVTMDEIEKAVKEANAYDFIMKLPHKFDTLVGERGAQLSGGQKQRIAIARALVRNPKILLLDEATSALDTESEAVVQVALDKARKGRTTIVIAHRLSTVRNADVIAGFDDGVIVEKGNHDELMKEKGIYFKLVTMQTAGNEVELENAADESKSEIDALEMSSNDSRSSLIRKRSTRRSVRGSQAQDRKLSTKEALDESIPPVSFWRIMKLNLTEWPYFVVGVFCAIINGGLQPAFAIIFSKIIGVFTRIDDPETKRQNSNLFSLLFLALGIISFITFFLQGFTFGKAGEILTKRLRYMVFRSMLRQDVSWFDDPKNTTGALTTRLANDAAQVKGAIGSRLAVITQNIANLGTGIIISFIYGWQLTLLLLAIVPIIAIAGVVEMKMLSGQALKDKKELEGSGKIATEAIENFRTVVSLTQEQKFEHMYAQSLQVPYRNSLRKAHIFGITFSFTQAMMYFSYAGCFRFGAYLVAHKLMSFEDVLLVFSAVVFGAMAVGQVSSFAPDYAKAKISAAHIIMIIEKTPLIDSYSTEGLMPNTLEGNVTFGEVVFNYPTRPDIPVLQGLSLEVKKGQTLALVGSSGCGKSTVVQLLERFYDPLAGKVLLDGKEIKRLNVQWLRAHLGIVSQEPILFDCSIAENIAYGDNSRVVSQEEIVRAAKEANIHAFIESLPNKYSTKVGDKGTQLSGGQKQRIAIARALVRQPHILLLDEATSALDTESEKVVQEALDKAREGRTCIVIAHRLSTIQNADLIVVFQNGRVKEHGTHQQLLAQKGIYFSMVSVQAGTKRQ
assay.overview: in vitro
measurement.parameters: MDCK-MDR1
measured.quantity: Papp A→B at 150 min

Entry CC[C@H]1OC(=O)[C@H](C)[C@@H](O[C@H]2C[C@@](C)(OC)[C@@H](O)[C@H](C)O2)[C@H](C)[C@@H](O[C@@H]2O[C@H](C)C[C@H](N(C)C)[C@H]2O)[C@](C)(O)C[C@@H](C)C(=O)[C@H](C)[C@@H](O)[C@]1(C)O [[^14C] erythromycin, erythromycin] ; Papp A→B at 150 min = 2.96 ×10⁻⁶ cm/s

====

study.target: P-gp (Homo sapiens, UniProt P08183)
assay.overview: in vitro
measurement.parameters: MDCK-MDR1
measured.quantity: efflux ratio at 150 min

Consider CC[C@H]1OC(=O)[C@H](C)[C@@H](O[C@H]2C[C@@](C)(OC)[C@@H](O)[C@H](C)O2)[C@H](C)[C@@H](O[C@@H]2O[C@H](C)C[C@H](N(C)C)[C@H]2O)[C@](C)(O)C[C@@H](C)C(=O)[C@H](C)[C@@H](O)[C@]1(C)O [[^14C] erythromycin, erythromycin] . Its measured efflux ratio at 150 min is 3.56
